target: h9B1; conditions: read-out: Ki (h9B1); pH 7.4
property: Ki (µM)
Respond with the bare value in µM.

Qu. Would you mind telling me what Ki value was observed for `CC(=O)O[C@H]1C=C[C@H]2[C@H]3Cc4ccc(O)c5c4[C@@]2(CCN3C)[C@H]1O5` ?
Ans. 0.0119

Qu. Return reported Ki; argument: `COc1ccc2c3c1O[C@H]1C(=O)CC[C@@]4(O)[C@@H](C2)N(C)CC[C@]314`
Ans. 6.91

Qu. // lookup Ki for COc1ccc2c3c1O[C@H]1C(=O)CC[C@H]4[C@@H](C2)N(C)CC[C@]314 [hydrocodone]
Ans. 0.0393

Qu. Requested field: Ki. Item: `CC(=O)Oc1ccc2c3c1O[C@H]1[C@@H](OC(C)=O)C=C[C@H]4[C@@H](C2)N(C)CC[C@@]341`
Ans. 0.0118

----------
biological target: 9B1; conditions: read-out: Ki (9B1); pH 7.4
Would you mind telling me the reported pKi of each entry?
Remember, pKi is on a log scale: it is -log10 of the molar concentration.

Qu. Returns the measured pKi for the input molecule. Input: CC(=O)Oc1ccc2c3c1O[C@H]1[C@@H](OC(C)=O)C=C[C@H]4[C@@H](C2)N(C)CC[C@@]341 [heroin]
Ans. 8.89

Qu. Report pKi for CC(=O)O[C@H]1C=C[C@H]2[C@H]3Cc4ccc(O)c5c4[C@@]2(CCN3C)[C@H]1O5 [6-MAM, 6-monoacetylmorphine] please.
Ans. 8.32

Qu. Query: pKi; subject: COc1ccc2c3c1O[C@H]1C(=O)CC[C@H]4[C@@H](C2)N(C)CC[C@]314 [hydrocodone]
Ans. 8.09

Qu. Record request: pKi value, item COc1ccc2c3c1O[C@H]1C(=O)CC[C@@]4(O)[C@@H](C2)N(C)CC[C@]314 [oxycodone]
Ans. 5.57
